system_name: native human MET on living cells (human, UniProt P08581 25-1390)
Sequence (P08581 25-1390): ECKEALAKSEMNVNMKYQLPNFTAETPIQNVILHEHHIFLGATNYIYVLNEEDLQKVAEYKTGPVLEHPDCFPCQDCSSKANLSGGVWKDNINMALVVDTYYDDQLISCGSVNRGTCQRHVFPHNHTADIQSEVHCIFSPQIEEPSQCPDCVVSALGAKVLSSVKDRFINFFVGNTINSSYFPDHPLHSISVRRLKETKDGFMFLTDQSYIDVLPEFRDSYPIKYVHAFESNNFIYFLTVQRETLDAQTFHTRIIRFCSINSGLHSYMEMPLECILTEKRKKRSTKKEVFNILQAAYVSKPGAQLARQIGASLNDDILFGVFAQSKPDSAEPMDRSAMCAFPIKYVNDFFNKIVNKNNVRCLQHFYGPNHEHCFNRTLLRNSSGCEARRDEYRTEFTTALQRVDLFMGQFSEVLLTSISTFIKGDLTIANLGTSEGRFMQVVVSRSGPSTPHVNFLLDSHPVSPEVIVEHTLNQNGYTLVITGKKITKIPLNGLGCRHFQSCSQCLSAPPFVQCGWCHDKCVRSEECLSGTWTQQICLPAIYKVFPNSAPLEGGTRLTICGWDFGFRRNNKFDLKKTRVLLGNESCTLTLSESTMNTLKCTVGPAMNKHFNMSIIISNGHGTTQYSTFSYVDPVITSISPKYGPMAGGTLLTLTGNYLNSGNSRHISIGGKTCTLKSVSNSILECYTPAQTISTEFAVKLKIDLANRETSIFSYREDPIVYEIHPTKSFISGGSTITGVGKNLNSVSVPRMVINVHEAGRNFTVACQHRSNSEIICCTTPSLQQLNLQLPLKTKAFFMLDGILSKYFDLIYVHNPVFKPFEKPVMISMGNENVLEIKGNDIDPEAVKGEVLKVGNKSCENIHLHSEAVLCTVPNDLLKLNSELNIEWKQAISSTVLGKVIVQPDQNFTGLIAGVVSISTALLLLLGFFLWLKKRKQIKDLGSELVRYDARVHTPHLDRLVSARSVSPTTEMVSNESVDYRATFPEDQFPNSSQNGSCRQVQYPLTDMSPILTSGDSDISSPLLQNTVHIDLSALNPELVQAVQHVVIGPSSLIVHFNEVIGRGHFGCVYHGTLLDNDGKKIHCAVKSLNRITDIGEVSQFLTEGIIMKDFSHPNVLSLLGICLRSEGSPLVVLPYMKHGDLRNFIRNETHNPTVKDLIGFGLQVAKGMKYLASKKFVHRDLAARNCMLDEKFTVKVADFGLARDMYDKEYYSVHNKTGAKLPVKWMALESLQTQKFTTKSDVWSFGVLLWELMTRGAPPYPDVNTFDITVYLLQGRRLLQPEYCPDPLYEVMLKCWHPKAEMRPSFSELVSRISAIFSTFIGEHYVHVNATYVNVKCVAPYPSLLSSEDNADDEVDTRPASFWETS
experiment: cell-based or functional assay
attribute_measured: scatter score 0-4, HPAF-II, 9.000 nM (score)
Please respond with the number in score and leave the unit unwritten.

Per the records, this binder ( 76G7 chimeric llama-human IgG1 mAb (antibody, V domains shown, llama VH on human IgG1 CH1-CH2-CH3, llama VL on human lambda CL) VH: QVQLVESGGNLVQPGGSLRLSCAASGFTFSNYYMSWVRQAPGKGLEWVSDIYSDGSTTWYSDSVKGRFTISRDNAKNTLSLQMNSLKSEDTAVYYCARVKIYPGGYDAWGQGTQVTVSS VL: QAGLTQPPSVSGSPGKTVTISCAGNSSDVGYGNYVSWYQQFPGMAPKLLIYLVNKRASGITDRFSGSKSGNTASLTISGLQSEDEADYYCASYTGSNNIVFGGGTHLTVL ) has scatter score 0-4, HPAF-II, 9.000 nM equal to 3

Per the records, this binder ( 72F8 chimeric llama-human IgG1 mAb (antibody, V domains shown, llama VH on human IgG1 CH1-CH2-CH3, llama VL on human lambda CL) VH: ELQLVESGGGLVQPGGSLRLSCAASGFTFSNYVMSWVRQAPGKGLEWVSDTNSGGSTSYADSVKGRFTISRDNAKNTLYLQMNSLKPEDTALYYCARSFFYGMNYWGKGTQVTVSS VL: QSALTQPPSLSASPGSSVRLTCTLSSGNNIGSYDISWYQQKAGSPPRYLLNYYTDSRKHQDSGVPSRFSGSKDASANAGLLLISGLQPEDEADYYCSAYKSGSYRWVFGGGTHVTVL ) has scatter score 0-4, HPAF-II, 9.000 nM equal to 3

Per the records, this binder ( 71G12 chimeric llama-human IgG1 mAb (antibody, V domains shown, llama VH on human IgG1 CH1-CH2-CH3, llama VL on human kappa CL) VH: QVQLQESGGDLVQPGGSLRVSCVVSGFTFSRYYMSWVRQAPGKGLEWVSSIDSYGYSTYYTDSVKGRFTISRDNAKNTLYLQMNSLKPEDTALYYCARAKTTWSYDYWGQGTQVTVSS VL: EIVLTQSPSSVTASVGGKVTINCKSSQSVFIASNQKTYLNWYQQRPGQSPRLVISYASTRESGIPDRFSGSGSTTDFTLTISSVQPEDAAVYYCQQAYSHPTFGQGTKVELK ) has scatter score 0-4, HPAF-II, 9.000 nM equal to 3

Per the records, this binder ( 71G3 chimeric llama-human IgG1 mAb (antibody, V domains shown, llama VH on human IgG1 CH1-CH2-CH3, llama VL on human lambda CL) VH: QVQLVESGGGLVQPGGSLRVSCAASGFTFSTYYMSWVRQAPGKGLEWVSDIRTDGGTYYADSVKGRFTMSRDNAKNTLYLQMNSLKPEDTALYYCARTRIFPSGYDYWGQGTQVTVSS VL: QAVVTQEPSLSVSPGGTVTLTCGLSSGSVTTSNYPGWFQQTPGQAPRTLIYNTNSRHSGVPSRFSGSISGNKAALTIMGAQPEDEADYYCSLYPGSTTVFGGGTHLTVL ) has scatter score 0-4, HPAF-II, 9.000 nM equal to 4

Sourced from patent US20210087281A1
